The values you see were collected from PubChem BioAssay (NCATS).

experiment: Cell Viability - LYMP2-003 (AID 965); settings: LYMP2-003 lymphoblastoid cell viability; series mostly up to 92.2 µM;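 further: cells exposed to compounds for 24 h before reading; nearly all actives have a fitted effect of over 50% in size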
Inconclusive results are not listed. Calls of active or inactive are those of the source. The call rests on the fitted dose curve; in most records, active means well fitted cell-killing curve with a large enough effect; inconclusive means small, poorly fitted or top-dose-only effect, or effect the other way; inactive means flat fitted curve, though single readings scatter.
Classes used: active, inactive

{"Compound": "CC(=O)CC(=O)Nc1ccccc1", "Label value": "inactive"}
{"Compound": "O=[N+]([O-])c1ccc(F)cc1F", "Label value": "inactive"}
{"Compound": "CCCCC(CC)COC(=O)COc1ccc(Cl)cc1Cl (configuration not stated)", "Label value": "inactive"}
{"Compound": "Brc1cc(Oc2cc(Br)c(Br)c(Br)c2Br)c(Br)c(Br)c1Br", "Label value": "inactive"}
{"Compound": "C[C@@H]1CC2(OC(O)[C@]3(C)O[C@H]23)O[C@H]2C[C@@]3(C)[C@@H]4CC[C@H]5C(C)(C)C(O[C@@H]6OC[C@@H](O)[C@H](O)[C@H]6O)CC[C@@]56C[C@@]46CC[C@]3(C)[C@@H]12 (some centres not stated)", "Label value": "inactive"}
{"Compound": "C=Cc1cccc(C)c1", "Label value": "inactive"}
{"Compound": "c1ccc(Nc2cccc3ccccc23)cc1", "Label value": "inactive"}
{"Compound": "Cc1ccc(N)cc1[N+](=O)[O-]", "Label value": "inactive"}
{"Compound": "Cc1cccnc1", "Label value": "inactive"}
{"Compound": "O=c1[nH]ncc2ccccc12", "Label value": "inactive"}
{"Compound": "COc1ccc(C(=O)Nc2ccccc2)cc1[N+](=O)[O-]", "Label value": "inactive"}
{"Compound": "O=C1OC(=O)c2ccccc21", "Label value": "inactive"}
{"Compound": "Oc1c(Cl)cc(Cl)c(Cl)c1Cl", "Label value": "inactive"}
{"Compound": "O=C(OCC1CO1)C1CCCCC1C(=O)OCC1CO1 (configuration not stated)", "Label value": "active"}
{"Compound": "Cc1ccc2ccc3cccc4ccc1c2c34", "Label value": "inactive"}
{"Compound": "O=C=Nc1ccc(Cl)c(Cl)c1", "Label value": "inactive"}
{"Compound": "CN(C)c1ccc(Cc2ccc(N(C)C)cc2)cc1", "Label value": "inactive"}
{"Compound": "Cc1ccccc1OCC1CO1 (configuration not stated)", "Label value": "inactive"}
{"Compound": "CCCCCCc1ccc(-c2ccc(C#N)cc2)cc1", "Label value": "inactive"}
{"Compound": "CC(C)COC(=O)COc1cc(Cl)c(Cl)cc1Cl", "Label value": "inactive"}
{"Compound": "CCC(Cl)CC(Cl)C(Cl)C(Cl)C(Cl)C(C)Cl (configuration not stated)", "Label value": "inactive"}
{"Compound": "CC(=O)OC1CC(C)OC(C)O1 (configuration not stated)", "Label value": "inactive"}
{"Compound": "CCN(CC)c1ccc2c(C)cc(=O)oc2c1", "Label value": "inactive"}
{"Compound": "C=C(C#N)C(=O)OCC", "Label value": "inactive"}
{"Compound": "Oc1cc2c(cc1O)[C@H]1c3ccc(O)c(O)c3OC[C@@]1(O)C2", "Label value": "active"}
{"Compound": "CCOc1ccc2nc(N)sc2c1", "Label value": "inactive"}
{"Compound": "C/C=C1/C(=O)C[C@H]2[C@@H]3CCC4=CC(=O)CC[C@]4(C)[C@H]3CC[C@]12C", "Label value": "inactive"}

###

molecular target: Cytochrome P450 1A2 (Homo sapiens) (UniProt P05177); test: p450-cyp1a2 (AID 410); settings: recombinant CYP1A2, luciferin-ME demethylation, luminescence; series mostly up to 11.4 µM;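 further: -100% = full effect of reference inhibitor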
Sequence (P05177 whole entry, looked up): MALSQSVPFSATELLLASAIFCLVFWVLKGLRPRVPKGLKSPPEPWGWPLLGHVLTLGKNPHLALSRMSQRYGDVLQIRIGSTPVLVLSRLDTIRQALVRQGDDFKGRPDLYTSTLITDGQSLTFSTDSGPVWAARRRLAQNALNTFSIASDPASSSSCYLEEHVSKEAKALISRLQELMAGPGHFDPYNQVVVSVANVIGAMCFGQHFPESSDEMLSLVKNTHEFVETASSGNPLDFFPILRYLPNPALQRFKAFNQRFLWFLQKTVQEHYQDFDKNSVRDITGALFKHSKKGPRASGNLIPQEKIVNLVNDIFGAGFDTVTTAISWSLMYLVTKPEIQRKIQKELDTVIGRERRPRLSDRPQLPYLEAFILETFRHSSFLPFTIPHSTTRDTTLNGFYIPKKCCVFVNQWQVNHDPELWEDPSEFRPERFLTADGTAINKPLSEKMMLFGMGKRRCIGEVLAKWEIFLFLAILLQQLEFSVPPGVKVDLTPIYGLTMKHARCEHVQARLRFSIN
Inconclusive results are not listed. Calls of active or inactive are those of the source. The call rests on the fitted dose curve.

{"Smiles entry": "Cn1c(=O)c2[nH]c(CCCCc3nc4c([nH]3)c(=O)n(C)c(=S)n4C)nc2n(C)c1=S", "Target of assay": "Cytochrome P450 1A2 (Homo sapiens) (UniProt P05177)", "activity change, negative = inhibition": "-13.8% [at 2.29 µM] (inactive)"}
{"Smiles entry": "Nc1ccc(S(=O)(=O)NCc2nccs2)cc1", "Target of assay": "Cytochrome P450 1A2 (Homo sapiens) (UniProt P05177)", "activity change, negative = inhibition": "-10.5% [at 2.29 µM] (inactive)"}
{"Smiles entry": "CCOC(=O)c1cnc(N(C)C)nc1SC(=N)N", "Target of assay": "Cytochrome P450 1A2 (Homo sapiens) (UniProt P05177)", "activity change, negative = inhibition": "-22.6% [at 2.29 µM] (inactive)"}
{"Smiles entry": "C[N+](C)(C)c1ncnc2c1ncn2[C@@H]1CCCCO1", "Target of assay": "Cytochrome P450 1A2 (Homo sapiens) (UniProt P05177)", "activity change, negative = inhibition": "2.3% [at 2.29 µM] (inactive)"}
{"Smiles entry": "O=C(O)c1ccc(OCc2ccccc2)c(Cl)c1", "Target of assay": "Cytochrome P450 1A2 (Homo sapiens) (UniProt P05177)", "activity change, negative = inhibition": "-3.2% [at 2.29 µM] (inactive)"}
{"Smiles entry": "COC(=O)[C@@H]1[C@@H]2C[C@H]3c4[nH]c5ccccc5c4CCN3C[C@@H]2CC[C@@H]1OS(=O)(=O)O", "Target of assay": "Cytochrome P450 1A2 (Homo sapiens) (UniProt P05177)", "activity change, negative = inhibition": "-10.3% [at 2.29 µM] (inactive)"}
{"Smiles entry": "c1ccc2c(c1)C(=Nc1ccc(N=C3c4ccccc4-c4ccccc43)cc1)c1ccccc1-2", "Target of assay": "Cytochrome P450 1A2 (Homo sapiens) (UniProt P05177)", "activity change, negative = inhibition": "-19.6% [at 2.29 µM] (inactive)"}
{"Smiles entry": "Cc1cccc(C)c1NC(=O)Nc1ccc(S(N)(=O)=O)cc1", "Target of assay": "Cytochrome P450 1A2 (Homo sapiens) (UniProt P05177)", "activity change, negative = inhibition": "-10.8% [at 2.29 µM] (inactive)"}
{"Smiles entry": "CC(C)(C)NCC[C@@H](O)c1cc(C(F)(F)F)nc2c(C(F)(F)F)cccc12", "Target of assay": "Cytochrome P450 1A2 (Homo sapiens) (UniProt P05177)", "activity change, negative = inhibition": "-9.9% [at 2.29 µM] (inactive)"}
{"Smiles entry": "[Cu].[O-]/N=C1/C(=[OH+])Nc2ccccc21.[O-]Nc1c(O)[nH]c2ccccc12", "Target of assay": "Cytochrome P450 1A2 (Homo sapiens) (UniProt P05177)", "activity change, negative = inhibition": "-20.1% [at 2.29 µM] (inactive)"}

###

test: qHTS Assay for Identification of Small Molecule Agonists for Hypoxia Response Element Signaling Pathway (AID 914); conditions: ME-180 (cervical carcinoma) HRE-bla reporter, beta-lactamase ratio, CoCl2, 17 h; hits give high values; further: % of control where 0% means no effect
Inconclusive results are not listed.
Examples of compounds with documented activation follow.

{"Smiles entry": "CC(C)CNc1nc2ncnc(N)c2[nH]1", "activation (%)": 10.3}
{"Smiles entry": "COc1ccc2ccccc2c1/C=C\\C(=O)c1ccccc1", "activation (%)": 22.5}
{"Smiles entry": "CC1(C)[C@@H]2CC[C@]1(CC(=O)O)[C@H](Cl)C2", "activation (%)": 2.22}
{"Smiles entry": "O=C(O)C[C@H](Sc1ccccc1)c1ccccc1", "activation (%)": -1.84}
{"Smiles entry": "Cc1cc(CN2CCCCC2)c(O)c(CN2CCCCC2)c1", "activation (%)": 2.92}
{"Smiles entry": "Cc1cc(C2(c3cc(C)c(O)c(C(=O)O)c3)OS(=O)(=O)c3ccccc32)cc(C(=O)O)c1O", "activation (%)": -3.84}
{"Smiles entry": "Clc1ccc(Cl)c(Nc2ccnc(SCc3ccccc3)n2)c1", "activation (%)": -13.8}
{"Smiles entry": "CN(C)C(=O)c1ccc(-c2nc(Nc3ccc(F)cc3)c3ccccc3n2)cc1", "activation (%)": 14.9}
{"Smiles entry": "CC(C)(C)c1ccc(O)c(CN(Cc2cc(C(C)(C)C)ccc2O)c2ccccc2)c1", "activation (%)": 12.3}
{"Smiles entry": "CN1C[C@@H](O)[C@@H](O)[C@@H](O)[C@@H]1CO", "activation (%)": 11.9}
{"Smiles entry": "O=C(O)c1ccc2c(c1C(=O)O)C(=O)OC2(c1ccc(O)cc1)c1ccc(O)cc1", "activation (%)": 9.96}
{"Smiles entry": "Cc1sc2ccccc2[n+]1CCC(=O)O", "activation (%)": -2.73}
{"Smiles entry": "O=C(Cn1ccc(=O)[nH]c1=O)Nc1ccc(C(=O)O)c(O)c1", "activation (%)": 6.06}
{"Smiles entry": "O=C(O)[C@@H](O)Cc1ccccn1", "activation (%)": 0.65}
{"Smiles entry": "OCCCSCCO", "activation (%)": 7.65}
{"Smiles entry": "N=c1nc(N)nc(N)n1-c1ccc(S(N)(=O)=O)cc1", "activation (%)": 8.62}
{"Smiles entry": "O=C(O)[C@@H](Br)[C@@H](Br)c1ccccc1[N+](=O)[O-]", "activation (%)": 6.66}
{"Smiles entry": "CN(C)C(=O)c1ccc(-c2nc(Nc3ccncc3)c3ccccc3n2)cc1", "activation (%)": -8.23}
{"Smiles entry": "O=C(O)[C@@H]1[C@@H](C(=O)Nc2ncccn2)[C@@H]2C=C[C@@H]1O2", "activation (%)": 18.9}
{"Smiles entry": "Cc1cc(=O)[nH]c2cc3oc4ccccc4c3cc12", "activation (%)": -6.85}
{"Smiles entry": "COc1ccc(-c2csc3c2[N+]2=CCC=C2C3=O)cc1", "activation (%)": 4.84}
{"Smiles entry": "Nc1ccc(CCNc2ncnc3c2ncn3[C@@H]2O[C@@H](CO)[C@H](O)[C@@H]2O)cc1", "activation (%)": 0.683}
{"Smiles entry": "O=C(O)c1ccc(CNCc2ccccc2)cc1", "activation (%)": 4.76}
{"Smiles entry": "Cc1c(C(=O)O)nc(/C=C\\C(=O)O)[nH]c1=O", "activation (%)": 12.3}
